Cited source for all entries: paper PMC9971899

- tested system: TM6-N4 (Defluviitalea phaphyphila, UniProt A0A4Y5UXE1)
- Construct: TM6-N4 truncation of Dp0100 (187 amino acids, within TM6 segment 1020-1446, without CBM35), His tag, produced in E. coli BL21 (DE3); monomer, Ca2+ in crystal structure
- method: Isothermal titration calorimetry (MicroCal PEAQ-ITC) of 20 uM TM6-N4 with 200 uM oligoalginate in 20 mM Tris-HCl pH 7.0 without NaCl at 25 °C, one-site binding model, triplicate for most ligands.
- experimental context: SD, n = 3
Please respond with reported pKd for every item in the list.
Entry type: numeric. Quantity: pKd, the -log10 of concentration in molar units.

q: Please report the recorded pKd for O=C(O)[C@@H]1O[C@@H](O[C@H]2[C@H](O)[C@H](O)[C@H](O[C@H]3[C@H](O)[C@H](O)[C@H](O[C@H]4[C@H](O)[C@H](O)[C@H](O[C@H]5[C@H](O)[C@H](O)[C@H](O[C@H]6[C@H](O)[C@H](O)[C@H](O[C@H]7[C@H](O)[C@H](O)C(O)O[C@H]7C(=O)O)O[C@H]6C(=O)O)O[C@H]5C(=O)O)O[C@H]4C(=O)O)O[C@H]3C(=O)O)O[C@H]2C(=O)O)[C@@H](O)[C@@H](O)[C@@H]1O (stereo partly drawn) [G7] .
a: 6.52

q: Please report the recorded pKd for O=C(O)[C@@H]1O[C@@H](O[C@H]2[C@H](O)[C@H](O)[C@H](O[C@H]3[C@H](O)[C@H](O)[C@H](O[C@H]4[C@H](O)[C@H](O)[C@H](O[C@H]5[C@H](O)[C@H](O)[C@H](O[C@H]6[C@H](O)[C@H](O)C(O)O[C@H]6C(=O)O)O[C@H]5C(=O)O)O[C@H]4C(=O)O)O[C@H]3C(=O)O)O[C@H]2C(=O)O)[C@@H](O)[C@@H](O)[C@@H]1O (stereo partly drawn) [G6] .
a: 7.70

q: Please report the recorded pKd for O=C(O)[C@H]1O[C@@H](O[C@H]2[C@H](O)[C@H](O)[C@H](O[C@H]3[C@H](O)[C@H](O)[C@H](O[C@H]4[C@H](O)[C@H](O)[C@H](O[C@H]5[C@H](O)[C@H](O)[C@H](O[C@H]6[C@H](O)[C@H](O)C(O)O[C@@H]6C(=O)O)O[C@@H]5C(=O)O)O[C@@H]4C(=O)O)O[C@@H]3C(=O)O)O[C@@H]2C(=O)O)[C@@H](O)[C@@H](O)[C@@H]1O (stereo partly drawn) [M6] .
a: 7.22

* * *

- tested system: TM6-N4 (Defluviitalea phaphyphila)
- Construct: TM6-N4 truncation of Dp0100 (187 amino acids, within TM6 segment 1020-1446, without CBM35), His tag, produced in E. coli BL21 (DE3); monomer, Ca2+ in crystal structure
- method: Isothermal titration calorimetry (MicroCal PEAQ-ITC) of 20 uM TM6-N4 with 200 uM oligoalginate in 20 mM Tris-HCl pH 7.0 without NaCl at 25 °C, one-site binding model, triplicate for most ligands.
- experimental context: SD, n = 3
recorded metric: Kd (nM)
// units = nM; emit number, no label

q: Please report the recorded Kd for O=C(O)[C@H]1O[C@@H](O[C@H]2[C@H](O)[C@H](O)[C@H](O[C@H]3[C@H](O)[C@H](O)[C@H](O[C@H]4[C@H](O)[C@H](O)[C@H](O[C@H]5[C@H](O)[C@H](O)[C@H](O[C@H]6[C@H](O)[C@H](O)[C@H](O[C@H]7[C@H](O)[C@H](O)C(O)O[C@@H]7C(=O)O)O[C@@H]6C(=O)O)O[C@@H]5C(=O)O)O[C@@H]4C(=O)O)O[C@@H]3C(=O)O)O[C@@H]2C(=O)O)[C@@H](O)[C@@H](O)[C@@H]1O (stereo partly drawn) .
a: 200

q: Please report the recorded Kd for O=C(O)[C@H]1O[C@@H](O[C@H]2[C@H](O)[C@H](O)[C@H](O[C@H]3[C@H](O)[C@H](O)[C@H](O[C@H]4[C@H](O)[C@H](O)[C@H](O[C@H]5[C@H](O)[C@H](O)C(O)O[C@@H]5C(=O)O)O[C@@H]4C(=O)O)O[C@@H]3C(=O)O)O[C@@H]2C(=O)O)[C@@H](O)[C@@H](O)[C@@H]1O (stereo partly drawn) .
a: 1200

q: Please report the recorded Kd for O=C(O)[C@@H]1O[C@@H](O[C@H]2[C@H](O)[C@H](O)[C@H](O[C@H]3[C@H](O)[C@H](O)C(O)O[C@H]3C(=O)O)O[C@H]2C(=O)O)[C@@H](O)[C@@H](O)[C@@H]1O (stereo partly drawn) .
a: 3100

* * *

- Test system: TM6-N4
- method: Isothermal titration calorimetry of alginate and oligoalginate binding to TM6-N4
- Design: species or system Defluviitalea phaphyphila
- experimental context: ITC, 25 °C, pH 7.0
Quick rule for you: ΔH under -9 kcal/mol gets 1.0, anything else gets 0.0.

q: Record O=C(O)[C@@H]1O[C@@H](O[C@H]2[C@H](O)[C@H](O)[C@H](O[C@H]3[C@H](O)[C@H](O)[C@H](O[C@H]4[C@H](O)[C@H](O)[C@H](O[C@H]5[C@H](O)[C@H](O)[C@H](O[C@H]6[C@H](O)[C@H](O)C(O)O[C@H]6C(=O)O)O[C@H]5C(=O)O)O[C@H]4C(=O)O)O[C@H]3C(=O)O)O[C@H]2C(=O)O)[C@@H](O)[C@@H](O)[C@@H]1O (some centres unmarked) : is its ΔH strictly below -9 kcal/mol?
a: 0.0

q: Record O=C(O)[C@@H]1O[C@@H](O[C@H]2[C@H](O)[C@H](O)[C@H](O[C@H]3[C@H](O)[C@H](O)C(O)O[C@H]3C(=O)O)O[C@H]2C(=O)O)[C@@H](O)[C@@H](O)[C@@H]1O (some centres unmarked) : is its ΔH strictly below -9 kcal/mol?
a: 1.0

q: Record O=C(O)[C@@H]1O[C@@H](O[C@H]2[C@H](O)[C@H](O)[C@H](O[C@H]3[C@H](O)[C@H](O)[C@H](O[C@H]4[C@H](O)[C@H](O)[C@H](O[C@H]5[C@H](O)[C@H](O)[C@H](O[C@H]6[C@H](O)[C@H](O)[C@H](O[C@H]7[C@H](O)[C@H](O)C(O)O[C@H]7C(=O)O)O[C@H]6C(=O)O)O[C@H]5C(=O)O)O[C@H]4C(=O)O)O[C@H]3C(=O)O)O[C@H]2C(=O)O)[C@@H](O)[C@@H](O)[C@@H]1O (some centres unmarked) : is its ΔH strictly below -9 kcal/mol?
a: 1.0

q: Record O=C(O)[C@H]1O[C@@H](O[C@H]2[C@H](O)[C@H](O)[C@H](O[C@H]3[C@H](O)[C@H](O)[C@H](O[C@H]4[C@H](O)[C@H](O)[C@H](O[C@H]5[C@H](O)[C@H](O)[C@H](O[C@H]6[C@H](O)[C@H](O)[C@H](O[C@H]7[C@H](O)[C@H](O)C(O)O[C@@H]7C(=O)O)O[C@@H]6C(=O)O)O[C@@H]5C(=O)O)O[C@@H]4C(=O)O)O[C@@H]3C(=O)O)O[C@@H]2C(=O)O)[C@@H](O)[C@@H](O)[C@@H]1O (some centres unmarked) : is its ΔH strictly below -9 kcal/mol?
a: 0.0

q: Record O=C(O)[C@@H]1O[C@@H](O[C@H]2[C@H](O)[C@H](O)[C@H](O[C@H]3[C@H](O)[C@H](O)[C@H](O[C@H]4[C@H](O)[C@H](O)C(O)O[C@H]4C(=O)O)O[C@H]3C(=O)O)O[C@H]2C(=O)O)[C@@H](O)[C@@H](O)[C@@H]1O (some centres unmarked) : is its ΔH strictly below -9 kcal/mol?
a: 0.0

* * *

- tested system: TM6-N4 (Defluviitalea phaphyphila, UniProt A0A4Y5UXE1)
- Construct: TM6-N4 truncation of Dp0100 (187 amino acids, within TM6 segment 1020-1446, without CBM35), His tag, produced in E. coli BL21 (DE3); monomer, Ca2+ in crystal structure
- method: Isothermal titration calorimetry (MicroCal PEAQ-ITC) of 20 uM TM6-N4 with 200 uM oligoalginate in 20 mM Tris-HCl pH 7.0 without NaCl at 25 °C, one-site binding model, triplicate for most ligands.
- experimental context: SD, n = 3
recorded metric: Kd

q: Please report the recorded Kd for O=C(O)[C@@H]1O[C@@H](O[C@H]2[C@H](O)[C@H](O)[C@H](O[C@H]3[C@H](O)[C@H](O)[C@H](O[C@H]4[C@H](O)[C@H](O)C(O)O[C@H]4C(=O)O)O[C@H]3C(=O)O)O[C@H]2C(=O)O)[C@@H](O)[C@@H](O)[C@@H]1O (some centres unmarked) .
a: 0.6 µM

q: Please report the recorded Kd for O=C(O)[C@@H]1O[C@@H](O[C@H]2[C@H](O)[C@H](O)[C@H](O[C@H]3[C@H](O)[C@H](O)[C@H](O[C@H]4[C@H](O)[C@H](O)[C@H](O[C@H]5[C@H](O)[C@H](O)C(O)O[C@H]5C(=O)O)O[C@H]4C(=O)O)O[C@H]3C(=O)O)O[C@H]2C(=O)O)[C@@H](O)[C@@H](O)[C@@H]1O (some centres unmarked) .
a: 0.5 µM
